Each recorded value in this set is attributed to paper PMC11965169.

# Target Desc: SbSIP (siderophore-interacting protein, flavin-containing siderophore reductase) (Shewanella bicestrii, UniProt A0A220UGT4)
# Construct: gene CF168_00510
# Sequence (A0A220UGT4 entry or part of it): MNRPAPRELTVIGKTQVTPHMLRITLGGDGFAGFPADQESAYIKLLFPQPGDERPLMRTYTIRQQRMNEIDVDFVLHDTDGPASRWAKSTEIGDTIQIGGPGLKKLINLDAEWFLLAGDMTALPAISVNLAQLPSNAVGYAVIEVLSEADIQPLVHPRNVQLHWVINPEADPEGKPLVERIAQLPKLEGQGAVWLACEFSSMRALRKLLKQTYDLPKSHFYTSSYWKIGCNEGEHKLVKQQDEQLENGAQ
# Assay Text: […] NMR titration (slow exchange)
# Type: binding
Measurement Type: pKd
API: returns pKd as number; meaning -log10 of concentration in mol/L.

May I ask what pKd has been recorded for NC(=O)C1=CN([C@@H]2O[C@H](COP(=O)(O)OP(=O)(O)OC[C@H]3O[C@@H](n4cnc5c(N)ncnc54)[C@H](O)[C@@H]3O)[C@@H](O)[C@H]2O)C=CC1 ? 4.77

* * *

# Target Desc: SbSIP (siderophore-interacting protein, flavin-containing siderophore reductase) (Shewanella bicestrii)
# Construct: gene CF168_00510
# Assay Text: […] NMR titration (fast exchange, chemical shift perturbation)
# Format: binding
Measurement Type: Kd

Form field: reported Kd of NC(=O)C1=CN([C@@H]2O[C@H](COP(=O)(O)OP(=O)(O)OC[C@H]3O[C@@H](n4cnc5c(N)ncnc54)[C@H](OP(=O)(O)O)[C@@H]3O)[C@@H](O)[C@H]2O)C=CC1 107 µM
